B1: Serine/threonine-protein kinase A-Raf, residues 21 to 89; numbered along this chain, P10398 (parent)
chain: VKVYLPNKQRTVVTVRDGMSVYDSLDKALKVRGLNQDCCVVYRLIKGRKTVTAWDTAIAPLDGEELIVE

Variants of: B1
assayProcedure: abundance fitness (aPCA) (normalised: wild type 0, dead -1); higher = more abundant; growth selection in yeast, the domain comes from the species named
particulars: Homo sapiens
measurementKind: abundance fitness
Lab note: write the figure by itself, no unit.

variant=Y4W measurementkind="abundance fitness" numericreadout=-0.045
variant=Y42N measurementkind="abundance fitness" numericreadout=-0.159
variant=P60A measurementkind="abundance fitness" numericreadout=0.147
variant=V3M measurementkind="abundance fitness" numericreadout=-0.814
variant=D23L measurementkind="abundance fitness" numericreadout=-0.493
variant=T14P measurementkind="abundance fitness" numericreadout=-0.005

Now, please, on to the next variant.
Which abundance fitness is reported for this variant? "R16D"
-0.106
